assay: gradient 5% acetonitrile 3 min, to 50% in 2 min, to 85% in 15 min, held 3 min, 100 µL/min; details: column: Zorbax Extend-C18 2.1 x 50 mm; eluents: water / acetonitrile, 0.1% formic acid
propertyName: RP-LC retention time (s)

COc1ccc2c(CCNC(=O)CCc3ccccc3)c[nH]c2c1 = 796
N#Cc1cnc2ccc(F)cc2c1N1CCC(C(=O)Nc2ccc(F)cc2)CC1 = 885
COc1ccc(NS(=O)(=O)c2c(C)c(-c3nnc(C4CCC4)o3)n(C)c2C)c(C)c1 = 929
CC(=O)Nc1ccc(C2(C(=O)O)CCC2)cc1 = 637
O=C(c1nnc(-c2ccc(S(=O)(=O)N3CCCC3)cc2)o1)N1CCOCC1 = 739
CCOc1ccc(NC(=O)C2CCN(S(C)(=O)=O)c3cc(C)ccc3O2)cc1 (stereo not given) = 972
CC(C)NC(=O)CN1C(=O)CC(c2ccc(Br)s2)=Nc2ccccc21 = 929
O=C(NCc1cccc(Cl)c1)C1CCCN(c2cnc3nccnc3c2)C1 (stereo not given) = 749
COc1cccc(NC(=O)C2CCN(S(C)(=O)=O)c3cc(Cl)ccc3O2)c1 (stereo not given) = 966
Cc1cccc(-c2nnc(SCc3cc(=O)n4c(C)csc4n3)o2)c1 = 873

----------
assay: gradient 5% acetonitrile 3 min, to 50% in 2 min, to 85% in 15 min, held 3 min, 100 µL/min; conditions: column: Zorbax Extend-C18 2.1 x 50 mm; eluents: water / acetonitrile, 0.1% formic acid
propertyName: RP-LC retention time (s)

Reference set (6 entries):
CCN(CC)C(=O)N1CCC(Oc2ccc(-c3noc(COC)n3)cc2)C1 (stereo not given) = 874
Cn1cc(C2=CCN(S(=O)(=O)c3cccc(F)c3)CC2)c2cccnc21 = 969
Cc1ccc(S(=O)(=O)N2CCCC(c3nnc(COc4ccccc4)o3)C2)c(C)c1 (stereo not given) = 984
CCS(=O)(=O)c1ccc2c(c1)N(Cc1nc(-c3cccc(Br)c3)no1)C(=O)CO2 = 988
Cc1c(S(=O)(=O)NCc2ccccc2)c(C)n(C)c1-c1nnc(C2CCC2)o1 = 972
Cc1ccccc1NC(=O)Cn1nc(N2CCOCC2)c2ccccc2c1=O = 774

(P) CCC(C)NC(=O)C1CCN(CCc2cn(C)c3ncccc23)CC1 (stereo not given)
(Q) COc1ccc(NC(=O)Cn2c(Nc3cc(C)cc(C)c3)nc(C)cc2=O)cc1Cl
Prompt line: Which one would you say has the larger RP-LC retention time value: P , or Q ? Your answer should be the label attached to the chosen record.
Response line: Q

(1) COC(=O)c1ccc(C(=O)Nc2cccc3c(OC)cccc23)cc1
(2) O=c1ccc(-c2ccncc2)nn1CCCNS(=O)(=O)c1cccs1
Prompt line: # returns the entry with the larger RP-LC retention time; inputs 1 and 2 Kindly state the label of the option you pick.
Response line: 1
(1: 821 s, 2: 571 s)

----------
assay: gradient 5% acetonitrile 3 min, to 50% in 2 min, to 85% in 15 min, held 3 min, 100 µL/min; conditions: column: Zorbax Extend-C18 2.1 x 50 mm; eluents: water / acetonitrile, 0.1% formic acid
propertyName: RP-LC retention time (s)

CCSc1nc2ccc(NS(=O)(=O)c3ccc(F)cc3)cc2s1 = 1010
O=C(CCn1cnc2cc(-c3noc(-c4cccc(F)c4)n3)ccc21)N1CCCC1 = 765
O=C(NCc1ccccc1Br)c1ccc(-c2cccnc2)nc1 = 697
CCOC(=O)c1c(C)[nH]c(C(=O)N2CCCC(C(=O)N3CCOCC3)C2)c1C (stereo not drawn) = 672
CCN(CCN(C)C)c1ccc(C(=O)O)cc1NS(=O)(=O)c1cc(F)ccc1F = 611

(a) O=C(CC(F)(F)F)N1CCC(c2noc(-c3cccnc3)n2)C1 (stereo not drawn)
(b) CC(C)c1csc(-c2csc(S(=O)(=O)Nc3ccc(F)c(F)c3)c2)n1
Prompt line: Which value of RP-LC retention time is smaller, the one for a or the one for b ? Give the label of your selection.
Response line: a
(a: 643 s, b: 1120 s)

(1) CCc1ccc(C(=O)c2cnc3ccc(OC)cc3c2N2CCN(CC)CC2)cc1
(2) C=CCN1C(=O)COc2ccc(-c3nc(NC(=O)c4cc(OC)cc(OC)c4)sc3C)cc21
Prompt line: Between the entries labeled 1 and 2 , whose measured RP-LC retention time is lower? Pick one and reply with its label.
Response line: 1
(1: 619 s, 2: 1090 s)

(A) O=C(NCc1ccc2c(c1)OCO2)C1CCCN(c2cnc3ccccc3n2)C1 (stereo not drawn)
(B) CC1CCc2nc(NC(=O)c3cc(Cl)sc3Cl)sc2C1 (stereo not drawn)
Prompt line: Parameter check: reported RP-LC retention time is higher for which label, A or B ? Answer with the label corresponding to your selection.
Response line: B
(B: 1170 s, A: 736 s)

(A) Cc1nc(OCC(=O)Nc2ccc(Cl)cc2Cl)c2ccccc2n1
(B) CCc1nc2cc(-c3noc(-c4ccc(OC)cc4C)n3)ccc2o1
Prompt line: Looking at recorded values for RP-LC retention time, does A or B come in lower? Please indicate the selected item by its label.
Response line: A
(A: 831 s, B: 1270 s)

(a) COc1cc(NC(=O)Cn2c(=O)n(-c3ccc(C)cc3)c(=O)c3c2cc(C)n3C)cc(OC)c1
(b) COc1cc(OC)cc(C(=O)N2CCN(c3cc(C(C)C)n4cnnc4n3)CC2)c1
Prompt line: Param metric = RP-LC retention time; output whichever of a , b has the minimum value. Indicate which entry you chose by stating its label.
Response line: b
(b: 576 s, a: 866 s)

(I) Nc1c(C(=O)NCc2ccc3c(c2)OCO3)nsc1C(=O)N1CCN(c2ccccn2)CC1
(II) CC1=C(c2ccc(C)cc2)S(=O)(=O)N=C1N1CCCN(C(=O)CC2CCCCC2)CC1
Prompt line: Higher RP-LC retention time: I or II ? Identify your pick by its label.
Response line: II

(A) O=C(CN1C(=O)C(C(=O)N2CCCCCC2)Sc2ccccc21)N1CCN(c2ccccn2)CC1 (stereo not drawn)
(B) Cc1cccc(NC(=O)Nc2nccn(-c3ccc(Br)cc3)c2=O)c1
Prompt line: Please let me know which one, A or B , has a lower measured RP-LC retention time value. Label of pick, please.
Response line: A
(A: 650 s, B: 1050 s)

(1) COc1ccc(C(=O)NCc2cccnc2OC)c(OC)n1
(2) CCCN1CCN(CCCNc2nc(-c3ccc(Cl)cc3)nc3ccccc23)CC1
Prompt line: Which record would sort first by descending RP-LC retention time, 1 or 2 ? Identify your pick by its label.
Response line: 1

----------
experiment: gradient 5% acetonitrile 3 min, to 50% in 2 min, to 85% in 15 min, held 3 min, 100 µL/min; conditions: column: Zorbax Extend-C18 2.1 x 50 mm; eluents: water / acetonitrile, 0.1% formic acid
propertyName: RP-LC retention time (s)

Solved cases (10 shown):
CC(C)Oc1ccc(-c2noc(-c3nn(-c4cccc(F)c4)ccc3=O)n2)cc1 = 1010
Cc1nn(C)c2c(=O)n(C(C)C(=O)NCc3ccc4c(c3)OCO4)ccc12 (stereo unspecified) = 715
CCOc1ccc2nc(NCc3ccco3)sc2c1 = 728
CCOc1ccc(NC(=O)C2CCN(S(C)(=O)=O)c3ccccc3O2)cc1 (stereo unspecified) = 877
O=C(Cn1c(=O)cc(-c2nc(C3CC3)no2)c2ccccc21)NCc1cccs1 = 882
Cc1noc(C)c1S(=O)(=O)N1CC(c2nc(Cc3cccnc3)no2)C1 = 588
COc1ccc(C2c3[nH]c4ccccc4c3CCN2C(=O)Cc2cccs2)cc1 (stereo unspecified) = 1110
COc1ccc(-c2noc(C3CCCN3C(=O)c3ccccc3OC)n2)cc1OC (stereo unspecified) = 834
COc1ccc(CNC(=O)C2CC(=O)N(c3n[nH]c4cccc(F)c34)C2)cc1OC (stereo unspecified) = 661
COC1(C2=NCCN2)COc2ccccc2O1 (stereo unspecified) = 581

(I) Cc1ccc(-n2c(=O)c3sccc3n(Cc3nc(-c4cccc(C)c4)no3)c2=O)cc1
(II) O=C(NCc1ccccn1)C(=O)NCC1OCCN1C(=O)c1ccc2c(c1)OCO2 (stereo unspecified)
Prompt line: Select one: I or II . Criterion: greater recorded RP-LC retention time. Record your answer as the label of the chosen record.
Response line: I
(I: 1060 s, II: 563 s)

----------
assay: gradient 5% acetonitrile 3 min, to 50% in 2 min, to 85% in 15 min, held 3 min, 100 µL/min; details: column: Zorbax Extend-C18 2.1 x 50 mm; eluents: water / acetonitrile, 0.1% formic acid
propertyName: RP-LC retention time (s)

Recorded RP-LC retention time, per entry:
CCOC(=O)C1=C(CNc2ccc(F)cc2F)NC(=O)NC1c1ccccc1 (stereo unspecified) = 886
Cc1ccccc1NC(=O)Cn1c(=O)n(-c2ccc(F)cc2)c2ncccc21 = 814
Cc1cc(N2CCN(S(=O)(=O)c3ccc(F)c(F)c3)CC2)nc(N2CCOCC2)n1 = 664
O=C(NCc1ccccn1)c1c[nH]c2ncccc12 = 549
CCCn1cc(C2=CCN(C(=O)Nc3cccc(Cl)c3F)CC2)c2cccnc21 = 773

(P) CCOC(=O)c1[nH]c(C)c(CCC(=O)N2CCC(C(=O)NCCc3ccccc3)CC2)c1C
(Q) COc1ccc(N2CCN(c3cc(SCC(=O)Nc4ccc(C)cc4Cl)ncn3)CC2)cc1
Prompt line: Between the two listed entries P and Q , which has its RP-LC retention time at the higher number? Answer = label.
Response line: Q
